Tested on: male rats
assay.info: 28-day repeated dose study, plasma metabolite profiling (GC-MS, LC-MS), male rats
Assay type: in vivo, rat
experimental.setup: day 14
Marks after values point to notes of the source that are not given here.
Listing: TAG (C16:0,C16:1), plasma, treatment ratio versus control of selected compounds

As a guide, the following entries are already answered.
{"compound": "CC(=O)CCC(C)=O [2,5-hexanedione]", "value": "0.67*"}
{"compound": "CCCCOCCO [2-Butoxyethanol]", "value": "0.66*"}
{"compound": "Cc1ncc[nH]1 [2-Methylimidazole]", "value": "0.38*"}

Quick one: TAG (C16:0,C16:1), plasma, treatment ratio versus control of CC(C=O)Cc1ccc(C(C)(C)C)cc1 (stereo not shown) [Lysmeral, 2-Methyl-3(4-tert.-butylphenyl)-propanal] ?
0.67*

* * *

Test system: male rats
assay.info: 28-day repeated dose study, plasma metabolite profiling (GC-MS, LC-MS), male rats
Format: in vivo, rat
experimental.setup: day 28
Marks after values point to notes of the source that are not given here.
experimental.readout: Lysine, plasma, treatment ratio versus control

{"molecule": "CC(=O)CCC(C)=O", "value": 0.96}
{"molecule": "Cc1ncc[nH]1", "value": "0.88*"}
{"molecule": "CC(C=O)Cc1ccc(C(C)(C)C)cc1 (stereo not shown)", "value": "8.13*"}

Query molecule follows.
Reported Lysine, plasma, treatment ratio versus control for male rats, given CCCCOCCO ?
0.86*

* * *

Some compounds, each annotated with its measured Coenzyme Q9, plasma, treatment ratio versus control.
System: male rats
assay.info: 28-day repeated dose study, plasma metabolite profiling (GC-MS, LC-MS), male rats
Assay type: in vivo, rat
experimental.setup: day 28
Just the number, please.

# returns recorded Coenzyme Q9, plasma, treatment ratio versus control (system: male rats) for CC(=O)CCC(C)=O
1.02

Item CCCCOCCO with male rats - Coenzyme Q9, plasma, treatment ratio versus control?
0.83

* * *

Reported Lysine, plasma, treatment ratio versus control values follow for various molecules
Test system: male rats
assay.info: 28-day repeated dose study, plasma metabolite profiling (GC-MS, LC-MS), male rats
Format: in vivo, rat
experimental.setup: day 14
Marks after values point to notes of the source that are not given here.

Worked examples, 4 molecules total:
{"molecule": "CCCCOCCO", "value": 1}
{"molecule": "Cc1ncc[nH]1", "value": 0.97}
{"molecule": "C#CC1(O)CCC2C3CCc4cc(O)ccc4C3CCC21C (centres unmarked)", "value": "1.4*"}
{"molecule": "CC(=O)CCC(C)=O", "value": "0.93*"}

Lysine, plasma, treatment ratio versus control lookup needed for CC(C=O)Cc1ccc(C(C)(C)C)cc1 (centres unmarked) , thanks.
6.55*

* * *

Test system: male rats
assay.info: 28-day repeated dose study, plasma metabolite profiling (GC-MS, LC-MS), male rats
Type: in vivo, rat
experimental.setup: day 7
Marks after values point to notes of the source that are not given here.
experimental.readout: TAG (C16:0,C16:1), plasma, treatment ratio versus control

{"molecule": "Cc1ncc[nH]1", "value": "0.67*"}
{"molecule": "CC(C=O)Cc1ccc(C(C)(C)C)cc1 (stereo not shown)", "value": 0.47}
{"molecule": "CCCCOCCO", "value": 1.16}

Moving on to the next molecule.
Sample CC(=O)CCC(C)=O — what was its TAG (C16:0,C16:1), plasma, treatment ratio versus control?
0.49*

* * *

Measured TAG (C16:0,C16:1), plasma, treatment ratio versus control of individual entries
Tested on: male rats
assay.info: 28-day repeated dose study, plasma metabolite profiling (GC-MS, LC-MS), male rats
Type: in vivo, rat
experimental.setup: day 28
The answer should be a number; do not append a unit.

{"entry.smiles": "CC(=O)CCC(C)=O", "target.desc": "male rats", "value": 0.95}

Now take the following compound into account.
Fill in: TAG (C16:0,C16:1), plasma, treatment ratio versus control of CCCCOCCO is ___
1.06
